Test: Selectivity index, ratio of GIC90 for Cytotoxicity against […] human THP-1 cells to MIC90 for Antitubercular activity against Mycobacterium bovis BCG ATCC 35734
Format: toxicity, cell-based
Conditions: read-out: Selectivity Index
Endpoint label: selectivity ratio
Numbers only.

                                   compound  result
0  Oc1ccccc1C1=NNC(c2ccc(Br)cc2)C1 (configuration not stated)      16

Moving on to the next compound.
Qu. State the recorded selectivity ratio for this entry: Oc1ccccc1C1=NNC(c2ccc(Cl)cc2)C1 (configuration not stated)
Ans. 16

###

System: Mycolicibacterium smegmatis
Assay: Antitubercular activity against Mycobacterium smegmatis mc2155 ATCC 700084 cultured in GAST media incubated for 24 hrs by resazurin microtiter assay
Format: functional
Endpoint label: MIC90

Please review the following examples before continuing.
                                   compound           measurement_target  endpoint_label      result
0  CC(=O)N1N=C(c2ccccc2O)CC1c1ccc(Cl)cc1 (stereo unspecified)  Mycolicibacterium smegmatis           MIC90  > 256 mg/L
1  COc1ccc(C2CC(c3ccccc3O)=NN2)cc1O (stereo unspecified)  Mycolicibacterium smegmatis           MIC90  > 256 mg/L
2  CC(=O)N1N=C(c2ccccc2O)CC1c1ccccc1O (stereo unspecified)  Mycolicibacterium smegmatis           MIC90  > 256 mg/L
3  CC(=O)N1N=C(c2ccccc2O)CC1c1cccc(Br)c1 (stereo unspecified)  Mycolicibacterium smegmatis           MIC90  > 256 mg/L
4  CC(=O)N1N=C(c2ccccc2O)CC1c1ccc(O)cc1 (stereo unspecified)  Mycolicibacterium smegmatis           MIC90  > 256 mg/L

Please examine the following record next.
Qu. Given the compound CC(=O)N1N=C(c2ccccc2O)CC1c1ccccc1C (stereo unspecified) , what is its reported MIC90?
Ans. > 256 mg/L
